# ASSAY METHOD TEXT: self-splicing fitness, log relative to wild type (ln ratio); higher = more splicing; Tetrahymena group I intron in knt gene, E. coli kanamycin selection, DiMSum; sequences stand for … in CUCUCU…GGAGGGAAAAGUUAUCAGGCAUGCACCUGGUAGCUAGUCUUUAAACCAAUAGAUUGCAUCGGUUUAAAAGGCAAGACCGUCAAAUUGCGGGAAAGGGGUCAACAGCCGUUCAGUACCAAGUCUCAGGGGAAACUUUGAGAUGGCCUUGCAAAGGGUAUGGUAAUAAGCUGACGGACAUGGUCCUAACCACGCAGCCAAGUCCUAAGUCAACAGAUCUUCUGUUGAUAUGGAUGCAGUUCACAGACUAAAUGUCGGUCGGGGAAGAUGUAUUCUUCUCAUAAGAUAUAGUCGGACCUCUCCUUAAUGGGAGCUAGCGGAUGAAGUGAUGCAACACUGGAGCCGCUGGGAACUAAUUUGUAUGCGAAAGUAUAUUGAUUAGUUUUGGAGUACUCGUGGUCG;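 also: selection with 25 µg/mL kanamycin versus none on LB agar overnight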
# CONDITION SET: 37 °C
I'd appreciate it if you could supply self-splicing fitness (ln) values for the items below.
Please give only the number in your answer, with no unit.

Q. Dear colleague, I am looking for the recorded self-splicing fitness (ln) of the following sequence: "UGCGAGCAAUAUUACGUUGU"
A. -3.05

Q. Another: "GAGAAGCAAUAUUACGCAAG"
A. -0.212

Q. Another: "UCCAAGCAAUAUUACGACCU"
A. -1.95

Q. Another: "UGUGAGCAAUAUUACGUGUU"
A. -2.59

Q. Another: "UACAAGCAAUAUUACGGAUU"
A. -0.762

Q. Another: "GAAAAGCAAUAUUACGUGCG"
A. 0.264

Q. Another: "GAGUAGCAAUAUUACGAGCG"
A. -0.489

Q. Another: "GUUUAGCAAUAUUACGGGUU"
A. -2.92

Q. Another: "ACGUAGCAAUAUUACGUGCC"
A. -0.492

Q. Another: "CGGCAGCAAUAUUACGUCUA"
A. 0.443

Q. Another: "GCACAGCAAUAUUACGCUGC"
A. -2.1

Q. Another: "AACGAGCAAUAUUACGUAAG"
A. -0.595

Q. Another: "AUCUAGCAAUAUUACGUGUG"
A. -1.49

Q. Another: "CGCAAGCAAUAUUACGCUAC"
A. -2.82

Q. Another: "CUCGAGCAAUAUUACGCCGC"
A. -2.12

Q. Another: "AGUAAGCAAUAUUACGCCCC"
A. -1.15

Q. Another: "UGAGAGCAAUAUUACGAUUG"
A. -1.14

Q. Another: "AGUGAGCAAUAUUACGGGCC"
A. -2.02

Q. Another: "CCCAAGCAAUAUUACGAUAA"
A. -3.49

Q. Another: "AUGGAGCAAUAUUACGUAGA"
A. -2.39

Q. Another: "UCCAAGCAAUAUUACGGGAC"
A. -1.24

Q. Another: "UGAUAGCAAUAUUACGGGUA"
A. -1.81

Q. Another: "CAGCAGCAAUAUUACGGAUG"
A. -1.48

Q. Another: "GCUUAGCAAUAUUACGUAAU"
A. 0.545

Q. Another: "CGUCAGCAAUAUUACGGAGC"
A. -1.95

Q. Another: "AUCAAGCAAUAUUACGGGUA"
A. -1.16

Q. Another: "GUCCAGCAAUAUUACGACCC"
A. 0.168

Q. Another: "CUAAAGCAAUAUUACGUUAA"
A. -2.53

Q. Another: "UGCUAGCAAUAUUACGUUAA"
A. -0.941

Q. Another: "AAUAAGCAAUAUUACGUUUU"
A. -1.55

Q. Another: "GUCGAGCAAUAUUACGCCCG"
A. -2.03

Q. Another: "AGGAAGCAAUAUUACGUCCA"
A. -0.0963

Q. Another: "GCUCAGCAAUAUUACGCCAC"
A. -1.97
